System: palmer (palmer amaranth, palmer pigweed, Amaranthus palmeri)
test_protocol: Test A postemergence application, visual injury rating 0-100
Format: in vivo
run_parameters: 62 g ai/ha, postemergence, 10 days, 0 = no effect, 100 = complete control
Description: […]
Recorded Pigweed, Palmer plant response rating (0-100) for the following compounds

Look over these answered cases.
{"columns": ["compound", "tested_on", "value_reported"],
 "data": [
  ["CCOC(=O)C1=CCC(NC(=O)C2(C)CN(c3cc(F)cc(F)c3)C(=O)O2)C1 (stereo not drawn) [Compound 112]", "palmer (palmer amaranth, palmer pigweed, Amaranthus palmeri)", 80],
  ["CSCCOC(=O)C1=CCC(NC(=O)C2(C)CN(c3cc(Cl)cc(Cl)c3)C(=O)O2)C1 (stereo not drawn) [Compound 146]", "palmer (palmer amaranth, palmer pigweed, Amaranthus palmeri)", 0]
]}

I am curious: what Pigweed, Palmer plant response rating (0-100) value has been reported for COC(=O)COC(=O)C1=CCC(NC(=O)C2(C)CN(c3cc(Cl)cc(Cl)c3)C(=O)O2)C1 (stereo not drawn) [Compound 109] ?
40

----------
Test system: kochia (Bassia scoparia)
test_protocol: Test A preemergence soil spray, visual injury rating 0-100
Assay type: in vivo
run_parameters: 16 g ai/ha, 0 to 100 scale, 10 days
metric_name: Kochia plant response rating

Look over these answered cases.
{"columns": ["compound", "metric_name", "value_reported"],
 "data": [
  ["CCOC(=O)C1=CCC(NC(=O)C2(C)CN(c3cc(F)cc(F)c3)C(=O)O2)C1 (stereo not shown) [Compound 111]", "Kochia plant response rating", 0],
  ["COC(=O)COC(=O)C1=CCC(NC(=O)C2(C)CN(c3cc(Cl)cc(Cl)c3)C(=O)O2)C1 (stereo not shown)", "Kochia plant response rating", 0],
  ["COC(=O)C1C=CC(NC(=O)C2(C(F)(F)F)CN(c3cc(F)c(F)c(F)c3)C(=O)O2)C1 (mixture of isomers)", "Kochia plant response rating", 0]
]}

Turning now to a further compound:
I am curious: what Kochia plant response rating value has been reported for CCOC(=O)C1=CCC(NC(=O)C2(C)CN(c3cc(Cl)cc(Cl)c3)C(=O)O2)C1 (stereo not shown) ?
0

----------
Test system: blackgrass (Alopecurus myosuroides)
test_protocol: Test A preemergence soil spray, visual injury rating 0-100
Format: in vivo
run_parameters: 500 g ai/ha, 10 days, 0 = no effect, 100 = complete control
metric_name: Blackgrass plant response rating (0 to 100 scale)
Write the number on its own, no unit after it.

Look over these answered cases.
{"columns": ["molecule", "value_reported"],
 "data": [
  ["CC1(C(=O)N[C@H]2C=C[C@@H](C(=O)O)C2)CN(c2cc(F)cc(F)c2)C(=O)O1 (some centres unmarked)", 90],
  ["CC1(C(=O)NC2C=CC(C(=O)NS(C)(=O)=O)C2)CN(c2cc(F)cc(F)c2)C(=O)O1 (centres unmarked)", 90],
  ["CC1(C(=O)NC2C=CC(C(=O)OCC#N)C2)CN(c2cc(F)cc(F)c2)C(=O)O1 (centres unmarked)", 90],
  ["CC(C)OC(=O)C1C=CC(NC(=O)C2(C)CN(c3cc(Cl)cc(Cl)c3)C(=O)O2)C1 (centres unmarked)", 100]
]}

Turning now to a further molecule:
I am curious: what Blackgrass plant response rating (0 to 100 scale) value has been reported for CCCOC(=O)C1C=CC(NC(=O)C2(C)CN(c3cc(F)cc(F)c3)C(=O)O2)C1 (centres unmarked) ?
100

Reference source for all entries: patent US20260285850A1
